Measurement Notes: in vitro
Design: dose or concentration left out as unconfirmed
Run Parameters: PAMPA, pH 7.4, PAMPA Pe
Starred links: 1 amine or outer side, 2 acyl side, 3 side chain; linkers in the order of their positions; H or OH if unused. Positions of bridges follow the written chain, without caps; N, C: chain ends. Non-standard residues stand in square brackets, D forms with d. Residues, ends and D or L forms follow the SMILES beside them. X1 = O=C([C@]1(CC=[*:3])CCCN1[*:1])[*:2]; αAllylPro = C=CC[C@@]1(C(=O)O)CCCN1; Ala(cPr) = N[C@@H](CC1CC1)C(=O)O; S5 = C=CCCC[C@](C)(N)C(=O)O
Classify as follows. Reported Papp at 5 h greater than or equal to 0.5 ×10⁻⁶ cm/s: y. Reported Papp at 5 h below: n.

{"Compound": "CNC(=O)[C@H](CC(N)=O)NC(=O)[C@H](CC(C)C)NC(=O)[C@H](CC(C)C)NC(=O)[C@H](Cc1c[nH]cn1)NC(=O)[C@]1(C)CCCC=CC[C@]2(CCCN2C(C)=O)C(=O)N[C@@H](C)C(=O)N[C@@H](CC(C)C)C(=O)N1 (single isomer, unassigned) [PLL7-20, Ac-PL3-Ala-Leu-S5-His-Leu-Leu-Asn-NHMe]", "Assigned Class": "y"}
{"Compound": "CNC(=O)[C@H](CC(=O)O)NC(=O)[C@H](CC(C)C)NC(=O)[C@H](CC(C)C)NC(=O)[C@H](Cc1ccc(O)cc1)NC(=O)[C@]1(C)CCCC=CC[C@]2(CCCN2C(C)=O)C(=O)N[C@@H](CCCCN)C(=O)N[C@@H](CC(C)C)C(=O)N1 (single isomer, unassigned) [PLL5-6, Ac-PL3-Lys-Leu-S5-Tyr-Leu-Leu-Asp-NHMe]", "Assigned Class": "y"}
{"Compound": "C=CCCC[C@](C)(NC(=O)[C@H](CC(C)C)NC(=O)[C@H](CC(C)C)NC(=O)[C@]1(CC=C)CCCN1C(C)=O)C(=O)N[C@@H](Cc1ccc(O)cc1)C(=O)N[C@@H](CC(C)C)C(=O)N[C@@H](CC(C)C)C(=O)N[C@@H](CC(=O)O)C(=O)NC [PLL4-10 variant 5, Ac-PL3-Leu-Leu-S5-Tyr-Leu-Leu-Asp-NHMe] (Ac-[αAllylPro]LL[S5]YLLD-NHMe)", "Assigned Class": "n"}
{"Compound": "CNC(=O)[C@H](CC(N)=O)NC(=O)[C@H](CC(C)C)NC(=O)[C@H](CC(C)C)NC(=O)[C@H](Cc1c[nH]cn1)NC(=O)[C@]1(C)CCCC=CCCC[C@](C)(NC(C)=O)C(=O)N[C@@H](C)C(=O)N[C@@H](C)C(=O)N[C@@H](CC(C)C)C(=O)N1 [PLL7-20 variant 4] (Ac-[S5]AAL[S5]HLLN-NHMe; staple 1-5)", "Assigned Class": "n"}
{"Compound": "CNC(=O)[C@H](CC(=O)O)NC(=O)[C@H](CC(C)C)NC(=O)[C@H](CC(C)C)NC(=O)[C@H](Cc1ccc(O)cc1)NC(=O)[C@]1(C)CCCC=CC[C@]2(CCCN2)C(=O)N[C@@H](CC(C)C)C(=O)N[C@@H](CC(C)C)C(=O)N1 (single isomer, unassigned) [PLL4-10 variant 1, H-PL3-Leu-Leu-S5-Tyr-Leu-Leu-Asp-NHMe]", "Assigned Class": "n"}
{"Compound": "CCCC[C@@H]1NC(=O)[C@H](CC(C)C)NC(=O)[C@]2(CC=CCCC[C@@](C)(C(=O)N[C@@H](CC(C)C)C(=O)N[C@@H](CC(C)C)C(=O)N[C@@H](Cc3c[nH]cn3)C(=O)N[C@@H](Cc3ccc(O)cc3)C(=O)NC)NC1=O)CCCN2C(C)=O (single isomer, unassigned) [PLL4-9, Ac-PL3-Leu-Nle-S5-Leu-Leu-His-Tyr-NHMe]", "Assigned Class": "n"}
{"Compound": "C=CCCC[C@](C)(NC(=O)[C@H](CC(C)C)NC(=O)[C@H](CC1CC1)NC(=O)[C@]1(CC=C)CCCN1C(C)=O)C(=O)N[C@@H](Cc1ccc(O)cc1)C(=O)N[C@@H](CC(C)C)C(=O)N[C@@H](CC(C)C)C(=O)N[C@@H](CCC(N)=O)C(=O)N[C@@H](CC(=O)O)C(=O)NC [PLL7-7 variant 5] (Ac-[αAllylPro][Ala(cPr)]L[S5]YLLQD-NHMe)", "Assigned Class": "n"}
{"Compound": "CNC(=O)[C@H](Cc1ccc(O)cc1)NC(=O)[C@H](CCC(N)=O)NC(=O)[C@H](CC(C)C)NC(=O)[C@H](CC(C)C)NC(=O)[C@H](Cc1ccc(O)cc1)NC(=O)[C@]1(C)CCCC=CC[C@]2(CCCN2C(C)=O)C(=O)N[C@@H](CC(C)C)C(=O)N[C@@H](CC(C)C)C(=O)N1 [PLL5-3] (Ac-[X1]LL[S5]YLLQY-NHMe; staple 1-4)", "Assigned Class": "n"}
{"Compound": "CNC(=O)[C@@H](NC(=O)[C@H](CC(C)C)NC(=O)[C@H](CC(C)C)NC(=O)[C@H](Cc1ccc(O)cc1)NC(=O)[C@]1(C)CCCC=CC[C@]2(CCCN2C(C)=O)C(=O)N[C@@H](CC(C)C)C(=O)N[C@@H](CC(C)C)C(=O)N1)[C@@H](C)O [PLL5-10, Ac-PL3-Leu-Leu-S5-Tyr-Leu-Leu-Thr-NHMe] (Ac-[X1]LL[S5]YLLT-NHMe; staple 1-4)", "Assigned Class": "n"}

* * *

Study System: ERβ LBD (Homo sapiens, UniProt Q92731)
Construct: pET28a+ vector containing ERβ LBD (residues from 261 to 500) along with an N-terminal His6-yBBr-TEV tag; His6 (N); yBBr (N); TEV cleavage site (N); made in house; host or cells: E. coli BL21(DE3) pLysS
Measurement Notes: Competition fluorescence polarization (FP) binding assay with FITC-ERL4 probe
Run Parameters: Table 4; binding to ER LBD; estradiol 1 μM, FITC-ERL4 10 nM, ERβ LBD 200 nM; mean ± S.E.M, at least four replicates; read-out: EC50
Starred links: 1 amine or outer side, 2 acyl side, 3 side chain; linkers in the order of their positions; H or OH if unused. Positions of bridges follow the written chain, without caps; N, C: chain ends. Non-standard residues stand in square brackets, D forms with d. Residues, ends and D or L forms follow the SMILES beside them. X1 = O=C([C@]1(CC=[*:3])CCCN1[*:1])[*:2]; Ala(cPr) = N[C@@H](CC1CC1)C(=O)O; S5 = C=CCCC[C@](C)(N)C(=O)O
Property: EC50

{"Compound": "CNC(=O)[C@H](CC(=O)O)NC(=O)[C@H](CCC(N)=O)NC(=O)[C@H](CC(C)C)NC(=O)[C@H](CC(C)C)NC(=O)[C@H](Cc1ccc(O)cc1)NC(=O)[C@]1(C)CCCC=CC[C@]2(CCCN2C(C)=O)C(=O)N[C@@H](CC2CC2)C(=O)N[C@@H](CC(C)C)C(=O)N1 [PLL7-7] (Ac-[X1][Ala(cPr)]L[S5]YLLQD-NHMe; staple 1-4)", "Property": "EC50", "Val": "0.9 µM"}
{"Compound": "CNC(=O)[C@@H](NC(=O)[C@H](CC(C)C)NC(=O)[C@H](CC(C)C)NC(=O)[C@H](CC1CC1)NC(=O)[C@]1(C)CCCC=CC[C@]2(CCCN2C(C)=O)C(=O)N[C@@H]([C@@H](C)O)C(=O)N[C@@H](CC(C)C)C(=O)N1)[C@@H](C)O [PLL7-23, Ac-PL3-Thr-Leu-S5-Cpa-Leu-Leu-Thr-NHMe] (Ac-[X1]TL[S5][Ala(cPr)]LLT-NHMe; staple 1-4)", "Property": "EC50", "Val": "2.4 µM"}
{"Compound": "CC[C@H](C)[C@@H]1NC(=O)[C@]2(CC=CCCC[C@@](C)(C(=O)N[C@@H](Cc3ccc(O)cc3)C(=O)N[C@@H](CC(C)C)C(=O)N[C@@H](CC(C)C)C(=O)N[C@@H](CC(=O)O)C(=O)NC)NC(=O)[C@H](CC(C)C)NC1=O)CCCN2C(C)=O [PLL5-4, Ac-PL3-Ile-Leu-S5-Tyr-Leu-Leu-Asp-NHMe] (Ac-[X1]IL[S5]YLLD-NHMe; staple 1-4)", "Property": "EC50", "Val": "1.3 µM"}
{"Compound": "CNC(=O)[C@H](CC(N)=O)NC(=O)[C@H](CC(C)C)NC(=O)[C@H](CC(C)C)NC(=O)[C@H](Cc1c[nH]cn1)NC(=O)[C@]1(C)CCCC=CC[C@]2(CCCN2C(C)=O)C(=O)N[C@@H](C)C(=O)N[C@@H](CC(C)C)C(=O)N1 (single isomer, unassigned)", "Property": "EC50", "Val": "> 10 µM"}
{"Compound": "CNC(=O)[C@H](CC(=O)O)NC(=O)[C@H](Cc1c[nH]cn1)NC(=O)[C@H](CC(C)C)NC(=O)[C@H](CC(C)C)NC(=O)[C@H](CCCNC(=N)N)NC(=O)[C@]1(C)CCCC=CC[C@]2(CCCN2C(C)=O)C(=O)N[C@@H](CC(C)C)C(=O)N[C@@H](CC(C)C)C(=O)N1 [PLL7-9] (Ac-[X1]LL[S5]RLLHD-NHMe; staple 1-4)", "Property": "EC50", "Val": "1.3 µM"}
